biological target: UniProt P21730; experiment: In vitro assay: PathHunter beta-arrestin antagonist assay in CHO-K1 C5AR1 beta-arrestin cell line, stimulated with C5a agonist; conditions: read-out: C5aR IC50; CHO-K1 C5AR1 beta-arrestin cell line; 1-10 nM C5a agonist; geometric mean values
Hi! Just check whether IC50 is below 100 nM. Below gives Criterion met, equal or above gives Criterion not met.

q: Lab log: compare recorded IC50 with 100 nM; is it strictly lower for Cc1cccc(F)c1N1CCC(N2Cc3ccccc3N(Cc3nccnc3C(C)C)C2=O)CC1 [Example 62] ?
a: Criterion met

q: Is 100 nM strictly greater than the molecule's reported IC50? molecule: Cc1cccc(F)c1N1CCC(N2C(=O)N(Cc3ccccc3C(F)(F)F)c3ccccc3C2C)CC1 (racemic) [Example 70]
a: Criterion not met

q: Please determine if Cc1cccc(F)c1N1CCC(N2Cc3ccccc3N(Cc3ccccc3Cl)C2=O)CC1 [Example 75] is below 100 nM in terms of IC50.
a: Criterion met

q: Find out if reported IC50 for CC(=O)OCCOc1ccccc1CN1C(=O)N(C2CCN(c3c(C)cccc3F)CC2)Cc2ccccc21 [Example 48] is less than 100 nM
a: Criterion not met

q: Dear colleague, could you confirm whether IC50 of COc1cccc(F)c1N1CCC(N2Cc3ccccc3N(Cc3ccccc3C(F)(F)F)C2=O)CC1 [Example 7] falls below 100 nM? Thanks.
a: Criterion met

q: Threshold test, IC50 < 100 nM: COc1cccc(C)c1N1CC[C@@H](N2Cc3ccccc3N(Cc3ccccc3C(F)(F)F)C2=O)C1 [Example 27]
a: Criterion met

q: Item Cc1cccc(F)c1N1CCC(N2Cc3ccccc3N(Cc3cnccc3C(F)(F)F)C2=O)CC1 [Example 67] : IC50 beneath 100 nM, strictly?
a: Criterion met

q: Consider Cc1cccc(F)c1N1CCC(N2Cc3ccccc3N(Cc3cnccc3C(C)C)C2=O)CC1 [Example 61] . Does its IC50 lie strictly below 100 nM?
a: Criterion met

q: Just wondering, is IC50 of Cc1cccc(F)c1N1CCC(N2Cc3ccccc3N(Cc3cccnc3C(F)(F)F)C2=O)CC1 [Example 65] below 100 nM?
a: Criterion met

q: # TODO verify IC50 < 100 nM strictly for this molecule: COc1cccc(C)c1N1CC[C@@H](N2Cc3cccc(OC)c3N(Cc3ccccc3C(F)(F)F)C2=O)C1 [Example 22]
a: Criterion met

q: Is IC50 strictly under 100 nM for the entry COc1ccccc1CN1C(=O)N([C@@H]2CCN(c3c(C)cccc3F)C2)Cc2ccccc21 [Example 35] ?
a: Criterion met

q: Take the molecule COc1ccccc1C(C)N1C(=O)N(C2CCN(c3c(C)cccc3F)CC2)Cc2ccccc21 (stereo not shown) [Example 40] and say whether its IC50 is less than 100 nM.
a: Criterion not met

q: Quick check: does Cc1cccc(F)c1N1CCC(N2Cc3ccccc3N(Cc3ncccc3C(F)(F)F)C2=O)CC1 [Example 69] have IC50 under 100 nM?
a: Criterion met

q: Is 100 nM strictly greater than the molecule's reported IC50? molecule: Cc1cccc(F)c1N1CCC(N2Cc3ccccc3N(C(C)c3ccccc3C(F)(F)F)C2=O)CC1 (stereo not shown) [Example 45]
a: Criterion not met

q: Is 100 nM strictly greater than the molecule's reported IC50? molecule: COc1cccc(OC)c1N1CC[C@@H](N2Cc3cccc(OC)c3N(Cc3ccccc3C(F)(F)F)C2=O)C1 [Example 24]
a: Criterion not met

q: Threshold test, IC50 < 100 nM: Cc1cccc(F)c1N1CCC(N2Cc3ccccc3N(Cc3ccccc3OC3CCOCC3)C2=O)CC1 [Example 53]
a: Criterion met

q: Is IC50 of Cc1cccc(F)c1N1CCC(N2Cc3ccccc3N(Cc3ccccc3C(C)C)C2=O)CC1 [Example 57] strictly below 100 nM?
a: Criterion met

q: # check: IC50 < 100 nM for Cc1ccnc(F)c1N1CC[C@@H](N2Cc3ccccc3N(Cc3ccccc3C(F)(F)F)C2=O)C1 [Example 33]
a: Criterion met

q: Hello, I'm reviewing records and need to know if IC50 of COc1ccccc1N1CCC(N2Cc3cccc(OC)c3N(Cc3ccccc3C(F)(F)F)C2=O)CC1 [Example 4] is below 100 nM. Could you check?
a: Criterion not met

q: # strict comparison: is reported IC50 < 100 nM? input = O=C1N(Cc2ccccc2C(F)(F)F)c2ccccc2CN1C1CCN(c2c(F)cccc2OC(F)(F)F)CC1 [Example 78]
a: Criterion met

q: Find out if reported IC50 for Cc1cccc(F)c1N1CCC(N2Cc3ccccc3N(Cc3ccccc3OC3COC3)C2=O)CC1 [Example 51] is less than 100 nM
a: Criterion not met

q: In the record for COc1ccccc1CN1C(=O)N([C@@H]2CCN(c3c(C)cccc3C)C2)Cc2ccccc21 [Example 34] , is IC50 less than 100 nM?
a: Criterion not met

q: Could you please tell me whether IC50 recorded for COc1ccccc1N1CC[C@H](N2Cc3ccccc3N(Cc3ccccc3C(F)(F)F)C2=O)C1 [Example 16] is less than 100 nM?
a: Criterion not met

q: # strict comparison: is reported IC50 < 100 nM? input = COc1nccnc1CN1C(=O)N(C2CCN(c3c(C)cccc3F)CC2)Cc2ccccc21 [Example 43]
a: Criterion not met

q: Decide: IC50 of Cc1cccc(F)c1N1CCC(N2Cc3ccccc3N(Cc3cncnc3C(C)C)C2=O)CC1 [Example 63] strictly below 100 nM?
a: Criterion met

q: Consider the molecule Cc1nn(C)c(N2CCC(N3Cc4ccccc4N(Cc4ccccc4C(F)(F)F)C3=O)CC2)c1C#N [Example 72] . Is its IC50 strictly less than 100 nM?
a: Criterion not met

q: IC50 strictly < 100 nM for this molecule? Cc1cccc(F)c1N1CCC(N2Cc3nccnc3N(Cc3ccccc3C(F)(F)F)C2=O)CC1 [Example 58]
a: Criterion met

q: Answer whether the molecule COc1ccccc1N1CC[C@@H](N2Cc3ccccc3N(Cc3ccccc3C(F)(F)F)C2=O)C1 [Example 20] has IC50 strictly less than 100 nM
a: Criterion not met

----------
molecular target: C5AR1 (Homo sapiens (Human), UniProt P21730); assay: In vitro assay: PathHunter beta-arrestin antagonist assay in CHO-K1 C5AR1 beta-arrestin cell line, stimulated with C5a agonist; details: read-out: C5aR IC50; CHO-K1 C5AR1 beta-arrestin cell line; 1-10 nM C5a agonist; geometric mean values
Sequence (P21730 whole entry): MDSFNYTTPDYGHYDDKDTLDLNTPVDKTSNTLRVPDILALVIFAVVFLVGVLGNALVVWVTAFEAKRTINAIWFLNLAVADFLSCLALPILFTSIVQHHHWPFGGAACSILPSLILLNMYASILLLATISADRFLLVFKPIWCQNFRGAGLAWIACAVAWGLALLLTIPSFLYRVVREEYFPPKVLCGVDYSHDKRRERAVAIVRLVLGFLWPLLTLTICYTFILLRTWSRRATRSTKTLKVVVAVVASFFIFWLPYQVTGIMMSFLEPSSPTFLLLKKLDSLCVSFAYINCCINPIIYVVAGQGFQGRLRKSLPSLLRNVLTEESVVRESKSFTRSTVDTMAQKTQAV
assayEndpoint: IC50 (nM)
Entry rule: numbers only, all in nM.

q: Report IC50 for COc1cccc(F)c1N1CC[C@@H](N2Cc3cccc(OC)c3N(Cc3ccccc3C(F)(F)F)C2=O)C1 [Example 11]
a: 219

q: Output measured IC50 for this item: Cc1nn(C)c(N2CCC(N3Cc4ccccc4N(Cc4ccccc4C(F)(F)F)C3=O)CC2)c1Cl [Example 73]
a: 1340

q: Please indicate IC50 recorded for CCOc1ccccc1CN1C(=O)N(C2CCN(c3c(C)cccc3F)CC2)Cc2ccccc21 [Example 46]
a: 35

q: Give reported IC50 value for O=C1N(Cc2ccccc2C(F)(F)F)c2ccccc2CN1C1CCN(c2c(F)cccc2C(F)(F)F)CC1 [Example 76]
a: 50

q: Give the reported value of IC50 for this record: Cc1ccnc(C)c1N1CC[C@@H](N2Cc3ccccc3N(Cc3ccccc3C(F)(F)F)C2=O)C1 [Example 32]
a: 280

q: For the compound Cc1cccc(F)c1N1CCC(N2Cc3ccccc3N(Cc3ccccc3OCCN(C)C)C2=O)CC1 [Example 47] , give its measured IC50 value.
a: 1660

q: Give IC50 for the following compound: COc1cccc(C)c1N1CCC(N2Cc3ccccc3N(Cc3ccccc3C(F)(F)F)C2=O)CC1 [Example 23]
a: 32

q: Quote IC50 reported for Cn1nc(C2CC2)c(Cl)c1N1CCC(N2Cc3ccccc3N(Cc3ccccc3C(F)(F)F)C2=O)CC1 [Example 12] please.
a: 679

----------
target: C5AR1 (Homo sapiens (Human)); test: In vitro assay: PathHunter beta-arrestin antagonist assay in CHO-K1 C5AR1 beta-arrestin cell line, stimulated with C5a agonist; settings: read-out: C5aR IC50; CHO-K1 C5AR1 beta-arrestin cell line; 1-10 nM C5a agonist; geometric mean values
assayEndpoint: IC50
I'd appreciate it if you included the unit after the number.

q: Quote IC50 with test system C5AR1 (Homo sapiens (Human)) for "COc1nccc(C)c1N1CC[C@@H](N2Cc3ccccc3N(Cc3ccccc3C(F)(F)F)C2=O)C1"
a: 37 nM

q: Enter IC50 (test system C5AR1 (Homo sapiens (Human))) for "COc1cccc(C)c1N1CCC(N2Cc3cccc(OC)c3N(Cc3ccccc3C(F)(F)F)C2=O)CC1"
a: 497 nM

q: System C5AR1 (Homo sapiens (Human)). Read-out IC50. Item "COc1cccc(F)c1N1CC[C@@H](N2Cc3ccccc3N(Cc3ccccc3C(F)(F)F)C2=O)C1" . Report value.
a: 37 nM

q: Enter recorded IC50 with C5AR1 (Homo sapiens (Human)) for "Cc1ccnc(C)c1N1CCC(N2Cc3ccccc3N(Cc3ccccc3C(F)(F)F)C2=O)CC1" here.
a: 287 nM
